Source: patent EP0470323A2

System: Central artery of a rabbit's ear
Assay: In vitro antispastic action, adrenalin-induced spasm of the perfused isolated artery
Details: spasm induced by Adrenalin, n=4; listed as Compound accord.Ex.1; read-out: DE50 (the source's name)
MEASURED_ENDPOINT: pEC50
Give bare numbers, as −log10 of the molar value.

Problem: Report measured pEC50; entry is COc1cc(OC)c(C(=O)CCCN2CCCC2)c(OC)c1 [Example 1]
Solution: 6.24
